All values here come from PubChem BioAssay AID1963869.

System: KRAS patient-derived spheroids with HUVEC/MSC, viability;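 further: spheroids exposed to agents for 7 days; 100% = DMSO vehicle control viability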
Assay: Anticancer human tumor 323965-272-R-J2-PDC patient-derived pancreatic carcinoma cell line growth inhibition [KRAS2]
Conditions: second compound 1 µM; first compound 0.1 µM; hits give low values
Readout Kind: viability, T/C (%)
Record the value in %, omitting the unit from your answer.

Here is how some compounds turned out for viability, T/C.
CCN1CCN(Cc2ccc(Nc3ncc(F)c(-c4cc(F)c5nc(C)n(C(C)C)c5c4)n3)nc2)CC1 + CC1OCC2(CCN(c3cnc(Sc4ccnc(N)c4Cl)c(N)n3)CC2)C1N | 23.4
CC(C)n1nc(-c2ccc3oc(N)nc3c2)c2c(N)ncnc21 + CNCc1ccccc1-c1csc(C(C)Nc2nc(C)nc3cc(OC)c(OC)cc23)c1 | 15.6
CCNC(=O)CC1N=C(c2ccc(Cl)cc2)c2cc(OC)ccc2-n2c(C)nnc21 (stereo unspecified) + COc1cc2nc(C)nc(NC(C)c3cc(N)cc(C(F)(F)F)c3)c2cc1OC1CCOC1 | 65.3
CCN1CCN(Cc2ccc(Nc3ncc(F)c(-c4cc(F)c5nc(C)n(C(C)C)c5c4)n3)nc2)CC1 + COc1cc2nc(C)nc(NC(C)c3cc(N)cc(C(F)(F)F)c3)c2cc1OC1CCOC1 | 42.9
CC(C)NCC(C(=O)N1CCN(c2ncnc3c2C(C)CC3O)CC1)c1ccc(Cl)cc1 (stereo unspecified) + C=CC(=O)N1CCN(c2nc(=O)n(-c3c(C)ccnc3C(C)C)c3nc(-c4c(O)cccc4F)c(F)cc23)C(C)C1 | 55
CC1COCCN1c1cc(-c2ccnn2C)c2ccnc(-c3ccn[nH]3)c2n1 (stereo unspecified) + CNCc1ccccc1-c1csc(C(C)Nc2nc(C)nc3cc(OC)c(OC)cc23)c1 | 17.9
CC1(C)CCC(CN2CCN(c3ccc(C(=O)NS(=O)(=O)c4ccc(NCC5CCOCC5)c([N+](=O)[O-])c4)c(Oc4cnc5[nH]ccc5c4)c3)CC2)=C(c2ccc(Cl)cc2)C1 + CC1OCC2(CCN(c3cnc(Sc4ccnc(N)c4Cl)c(N)n3)CC2)C1N | 45.9
CC(=O)OC12COC1CC(O)C1(C)C(=O)C(O)C3=C(C)C(OC(=O)C(O)C(NC(=O)OC(C)(C)C)c4ccccc4)CC(O)(C(OC(=O)c4ccccc4)C21)C3(C)C (stereo unspecified) + COc1cc2nc(C)nc(NC(C)c3cc(N)cc(C(F)(F)F)c3)c2cc1OC1CCOC1 | 27.6

### Prompt # lookup: viability, T/C of CCN1CCN(Cc2ccc(Nc3ncc(F)c(-c4cc(F)c5nc(C)n(C(C)C)c5c4)n3)nc2)CC1 + C=CC(=O)N1CCN(c2nc(=O)n(-c3c(C)ccnc3C(C)C)c3nc(-c4c(O)cccc4F)c(F)cc23)C(C)C1
### Response 35.5

### Prompt Any idea what its viability, T/C is? The compound is CC(C)n1nc(-c2ccc3oc(N)nc3c2)c2c(N)ncnc21 + COc1cc2nc(C)nc(NC(C)c3cc(N)cc(C(F)(F)F)c3)c2cc1OC1CCOC1
### Response 14

### Prompt Given the entry CC1OCC2(CCN(c3cnc(Sc4ccnc(N)c4Cl)c(N)n3)CC2)C1N (stereo unspecified) + COc1cc2nc(C)nc(NC(C)c3cc(N)cc(C(F)(F)F)c3)c2cc1OC1CCOC1 , report its measured viability, T/C.
### Response 34.6

### Prompt Give its viability, T/C value. Item: CC1COCCN1c1cc(-c2ccnn2C)c2ccnc(-c3ccn[nH]3)c2n1 (stereo unspecified) + C=CC(=O)N1CCN(c2nc(=O)n(-c3c(C)ccnc3C(C)C)c3nc(-c4c(O)cccc4F)c(F)cc23)C(C)C1
### Response 18.9

### Prompt Look up viability, T/C for this compound: CC(=O)OC12COC1CC(O)C1(C)C(=O)C(O)C3=C(C)C(OC(=O)C(O)C(NC(=O)OC(C)(C)C)c4ccccc4)CC(O)(C(OC(=O)c4ccccc4)C21)C3(C)C (stereo unspecified) + C=CC(=O)N1CCN(c2nc(=O)n(-c3c(C)ccnc3C(C)C)c3nc(-c4c(O)cccc4F)c(F)cc23)C(C)C1
### Response 19.6
